Reference for the values: patent US10844077B2

Recorded % change of MS signal compared to control sample for the following molecules
Target: FRAP (Homo sapiens (Human), UniProt P42345)
Assay: KINATIV assay
Assay type: cell-based
Conditions: 1 μM, 90 minutes, BCWM.1 cells
Lab book: enter the figure in %, no units written.

// solved cases for % change of MS signal compared to control sample follow
| molecule | value-observed |
| --- | --- |
| C=CC(=O)N1CC[C@@H](Nc2nccc(Nc3ncc(C(=O)Nc4c(C)cccc4C)s3)n2)C1 | 4.9 |
| C=CC(=O)N1CCC(Cn2ccc(Nc3ncc(C(=O)Nc4c(C)cccc4Cl)s3)n2)C1 (stereo not shown) | 8.6 |
| C=CC(=O)N1CCC(CNc2nccc(Nc3ncc(C(=O)Nc4c(C)cccc4C)s3)n2)C1 (racemic) | −5.2 |

Data request: So what does the record say about % change of MS signal compared to control sample for C=CC(=O)N1CCCCC(Nc2nccc(Nc3ncc(C(=O)Nc4c(C)cccc4C)s3)n2)C1 (stereo not shown) ?
Data returned: −3.5

---

Biological target: RSK4 domain1 (Homo sapiens (Human))
Sequence (Q9UK32 whole entry, the tested form may be a part): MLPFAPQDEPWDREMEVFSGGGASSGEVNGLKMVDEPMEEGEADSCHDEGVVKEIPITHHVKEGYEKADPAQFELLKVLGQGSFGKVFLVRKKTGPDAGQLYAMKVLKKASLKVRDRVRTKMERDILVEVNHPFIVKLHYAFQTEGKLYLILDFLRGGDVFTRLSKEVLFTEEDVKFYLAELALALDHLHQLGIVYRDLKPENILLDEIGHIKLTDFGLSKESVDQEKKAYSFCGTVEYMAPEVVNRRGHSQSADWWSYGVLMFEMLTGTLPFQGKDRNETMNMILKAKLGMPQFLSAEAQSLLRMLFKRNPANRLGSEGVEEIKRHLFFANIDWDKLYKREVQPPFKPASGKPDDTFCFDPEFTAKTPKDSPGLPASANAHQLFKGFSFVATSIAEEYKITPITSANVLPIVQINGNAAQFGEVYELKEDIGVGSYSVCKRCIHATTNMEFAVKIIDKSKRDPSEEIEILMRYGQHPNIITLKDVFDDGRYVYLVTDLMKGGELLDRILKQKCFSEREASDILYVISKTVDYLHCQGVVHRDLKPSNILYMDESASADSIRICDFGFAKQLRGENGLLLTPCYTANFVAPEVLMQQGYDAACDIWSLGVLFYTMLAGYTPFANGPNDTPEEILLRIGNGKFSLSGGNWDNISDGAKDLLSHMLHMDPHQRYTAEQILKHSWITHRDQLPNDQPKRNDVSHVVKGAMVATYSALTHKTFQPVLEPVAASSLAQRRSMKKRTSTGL
Assay: KINATIV assay
Format: cell-based
Settings: 1 μM, 90 minutes, BCWM.1 cells
readout-label: % change of MS signal compared to control sample

Data request: So what does the record say about % change of MS signal compared to control sample for "C=CC(=O)N1CC[C@@H](Nc2nccc(Nc3ncc(C(=O)Nc4c(C)cccc4C)s3)n2)C1" ?
Data returned: 3.5%

Data request: Could you do the same for C=CC(=O)N1CCC(CNc2nccc(Nc3ncc(C(=O)Nc4c(C)cccc4C)s3)n2)C1 (racemic) , please?
Data returned: −8.2%

Data request: Could you do the same for C=CC(=O)N1CCCCC(Nc2nccc(Nc3ncc(C(=O)Nc4c(C)cccc4C)s3)n2)C1 (stereo not shown) , please?
Data returned: −13.5%

Data request: Could you do the same for C=CC(=O)N1CCC(Cn2ccc(Nc3ncc(C(=O)Nc4c(C)cccc4Cl)s3)n2)C1 (stereo not shown) , please?
Data returned: −22.4%

---

Recorded % change of MS signal compared to control sample for the following compounds
Target: UniProtKB P48729
Sequence (P48729 whole entry): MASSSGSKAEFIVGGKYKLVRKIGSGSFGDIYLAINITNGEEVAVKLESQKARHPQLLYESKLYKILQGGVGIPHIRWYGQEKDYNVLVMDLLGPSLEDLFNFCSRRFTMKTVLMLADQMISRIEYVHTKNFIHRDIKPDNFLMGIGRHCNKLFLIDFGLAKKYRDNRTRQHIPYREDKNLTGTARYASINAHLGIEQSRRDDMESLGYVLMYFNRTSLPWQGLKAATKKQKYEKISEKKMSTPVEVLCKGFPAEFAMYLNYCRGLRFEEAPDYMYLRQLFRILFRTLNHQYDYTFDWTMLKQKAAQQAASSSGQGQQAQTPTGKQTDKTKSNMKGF
Experiment: KINATIV assay
Type: cell-based
Conditions: 1 μM, 90 minutes, BCWM.1 cells
Lab book: enter the figure in %, no units written.

// solved cases for % change of MS signal compared to control sample follow
| compound | value-observed |
| --- | --- |
| C=CC(=O)N1CCC(CNc2nccc(Nc3ncc(C(=O)Nc4c(C)cccc4C)s3)n2)C1 (racemic) | 14.9 |
| C=CC(=O)N1CCCCC(Nc2nccc(Nc3ncc(C(=O)Nc4c(C)cccc4C)s3)n2)C1 (stereo not shown) | −0.7 |
| C=CC(=O)N1CC[C@@H](Nc2nccc(Nc3ncc(C(=O)Nc4c(C)cccc4C)s3)n2)C1 | −41.3 |

Moving on to another compound below.
Data request: So what does the record say about % change of MS signal compared to control sample for C=CC(=O)N1CCC(Cn2ccc(Nc3ncc(C(=O)Nc4c(C)cccc4Cl)s3)n2)C1 (stereo not shown) ?
Data returned: −14.4

---

Recorded % change of MS signal compared to control sample for the following molecules
Tested on: Wnk1, Wnk2, Wnk3
Assay: KINATIV assay
Type: cell-based
Conditions: 1 μM, 90 minutes, BCWM.1 cells
Lab book: enter the figure in %, no units written.

| molecule | tested-target | output-unit | value-observed |
| --- | --- | --- | --- |
| C=CC(=O)N1CCC(CNc2nccc(Nc3ncc(C(=O)Nc4c(C)cccc4C)s3)n2)C1 (racemic) | Wnk1, Wnk2, Wnk3 | % | 1.7 |

Data request: So what does the record say about % change of MS signal compared to control sample for C=CC(=O)N1CCC(Cn2ccc(Nc3ncc(C(=O)Nc4c(C)cccc4Cl)s3)n2)C1 (stereo not shown) ?
Data returned: 2.4

Data request: Could you do the same for "C=CC(=O)N1CC[C@@H](Nc2nccc(Nc3ncc(C(=O)Nc4c(C)cccc4C)s3)n2)C1" , please?
Data returned: 17.5

Data request: Could you do the same for C=CC(=O)N1CCCCC(Nc2nccc(Nc3ncc(C(=O)Nc4c(C)cccc4C)s3)n2)C1 (stereo not shown) , please?
Data returned: 10.4

---

Recorded % change of MS signal compared to control sample for the following compounds
Biological target: VRK2 (Homo sapiens (Human), UniProt Q86Y07)
Sequence (Q86Y07 whole entry): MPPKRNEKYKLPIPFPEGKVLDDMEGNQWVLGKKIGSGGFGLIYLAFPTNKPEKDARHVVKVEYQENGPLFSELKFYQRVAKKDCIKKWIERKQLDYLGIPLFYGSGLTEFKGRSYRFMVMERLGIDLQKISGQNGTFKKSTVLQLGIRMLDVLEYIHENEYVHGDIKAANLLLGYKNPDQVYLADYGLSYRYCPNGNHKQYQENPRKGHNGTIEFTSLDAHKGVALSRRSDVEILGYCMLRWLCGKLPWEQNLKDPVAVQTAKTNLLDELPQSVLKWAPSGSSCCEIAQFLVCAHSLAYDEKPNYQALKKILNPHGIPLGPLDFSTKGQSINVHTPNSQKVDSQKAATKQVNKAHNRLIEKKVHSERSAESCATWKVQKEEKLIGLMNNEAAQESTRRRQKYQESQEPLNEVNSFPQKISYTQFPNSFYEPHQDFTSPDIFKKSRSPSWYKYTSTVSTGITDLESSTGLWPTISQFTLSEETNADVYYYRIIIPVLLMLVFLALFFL
Test: KINATIV assay
Format: cell-based
Conditions: 1 μM, 90 minutes, BCWM.1 cells
Lab book: enter the figure in %, no units written.

Data request: So what does the record say about % change of MS signal compared to control sample for C=CC(=O)N1CCC(Cn2ccc(Nc3ncc(C(=O)Nc4c(C)cccc4Cl)s3)n2)C1 (stereo not shown) ?
Data returned: 5.2

Data request: Could you do the same for C=CC(=O)N1CCCCC(Nc2nccc(Nc3ncc(C(=O)Nc4c(C)cccc4C)s3)n2)C1 (stereo not shown) , please?
Data returned: −2.3

Data request: Could you do the same for C=CC(=O)N1CCC(CNc2nccc(Nc3ncc(C(=O)Nc4c(C)cccc4C)s3)n2)C1 (racemic) , please?
Data returned: 3.6

Data request: Could you do the same for "C=CC(=O)N1CC[C@@H](Nc2nccc(Nc3ncc(C(=O)Nc4c(C)cccc4C)s3)n2)C1" , please?
Data returned: −30.6

---

Target: AMPKa1 (Homo sapiens (Human))
Sequence (Q13131 whole entry): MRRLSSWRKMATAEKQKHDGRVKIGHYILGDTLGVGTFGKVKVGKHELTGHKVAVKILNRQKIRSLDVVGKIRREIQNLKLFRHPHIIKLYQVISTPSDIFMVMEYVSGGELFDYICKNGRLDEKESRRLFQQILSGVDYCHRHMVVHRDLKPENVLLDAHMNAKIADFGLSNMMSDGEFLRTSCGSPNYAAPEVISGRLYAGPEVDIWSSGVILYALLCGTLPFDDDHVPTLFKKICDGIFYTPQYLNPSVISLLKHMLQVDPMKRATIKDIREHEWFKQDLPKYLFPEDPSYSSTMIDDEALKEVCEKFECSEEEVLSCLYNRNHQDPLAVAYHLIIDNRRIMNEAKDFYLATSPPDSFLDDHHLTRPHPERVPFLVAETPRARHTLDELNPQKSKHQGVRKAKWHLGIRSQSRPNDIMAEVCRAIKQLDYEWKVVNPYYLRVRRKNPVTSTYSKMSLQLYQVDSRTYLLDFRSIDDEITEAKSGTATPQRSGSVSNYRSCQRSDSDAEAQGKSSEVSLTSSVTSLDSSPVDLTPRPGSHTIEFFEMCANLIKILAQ
Sequence (Q9Y478 whole entry partner): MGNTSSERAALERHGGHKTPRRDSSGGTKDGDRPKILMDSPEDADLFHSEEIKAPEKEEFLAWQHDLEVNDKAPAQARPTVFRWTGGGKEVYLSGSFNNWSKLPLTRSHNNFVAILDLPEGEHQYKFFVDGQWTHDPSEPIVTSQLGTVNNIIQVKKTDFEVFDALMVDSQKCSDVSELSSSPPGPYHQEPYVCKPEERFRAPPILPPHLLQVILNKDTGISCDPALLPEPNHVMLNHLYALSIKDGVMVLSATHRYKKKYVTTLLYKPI
Sequence (P54619 whole entry partner): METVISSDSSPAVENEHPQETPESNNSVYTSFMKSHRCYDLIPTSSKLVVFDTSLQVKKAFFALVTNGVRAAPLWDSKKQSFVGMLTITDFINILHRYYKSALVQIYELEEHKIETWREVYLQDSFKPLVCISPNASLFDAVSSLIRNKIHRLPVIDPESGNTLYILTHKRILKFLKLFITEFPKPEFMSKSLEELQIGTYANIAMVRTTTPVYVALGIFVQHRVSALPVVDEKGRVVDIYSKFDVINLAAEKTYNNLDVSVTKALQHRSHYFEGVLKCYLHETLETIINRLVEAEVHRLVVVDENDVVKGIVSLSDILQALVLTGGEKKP
Assay: KINATIV assay
Type: cell-based
Settings: 1 μM, 90 minutes, BCWM.1 cells
Recorded % change of MS signal compared to control sample for the following molecules
Lab book: enter the figure in %, no units written.

// solved cases for % change of MS signal compared to control sample follow
| molecule | output-unit | value-observed |
| --- | --- | --- |
| C=CC(=O)N1CCC(Cn2ccc(Nc3ncc(C(=O)Nc4c(C)cccc4Cl)s3)n2)C1 (stereo not shown) | % | 5.1 |
| C=CC(=O)N1CC[C@@H](Nc2nccc(Nc3ncc(C(=O)Nc4c(C)cccc4C)s3)n2)C1 | % | 10.1 |
| C=CC(=O)N1CCC(CNc2nccc(Nc3ncc(C(=O)Nc4c(C)cccc4C)s3)n2)C1 (racemic) | % | −0.6 |

Moving on to another molecule below.
Data request: So what does the record say about % change of MS signal compared to control sample for C=CC(=O)N1CCCCC(Nc2nccc(Nc3ncc(C(=O)Nc4c(C)cccc4C)s3)n2)C1 (stereo not shown) ?
Data returned: 2.7

---

Target: FRK (Homo sapiens (Human))
Sequence (P42685 whole entry): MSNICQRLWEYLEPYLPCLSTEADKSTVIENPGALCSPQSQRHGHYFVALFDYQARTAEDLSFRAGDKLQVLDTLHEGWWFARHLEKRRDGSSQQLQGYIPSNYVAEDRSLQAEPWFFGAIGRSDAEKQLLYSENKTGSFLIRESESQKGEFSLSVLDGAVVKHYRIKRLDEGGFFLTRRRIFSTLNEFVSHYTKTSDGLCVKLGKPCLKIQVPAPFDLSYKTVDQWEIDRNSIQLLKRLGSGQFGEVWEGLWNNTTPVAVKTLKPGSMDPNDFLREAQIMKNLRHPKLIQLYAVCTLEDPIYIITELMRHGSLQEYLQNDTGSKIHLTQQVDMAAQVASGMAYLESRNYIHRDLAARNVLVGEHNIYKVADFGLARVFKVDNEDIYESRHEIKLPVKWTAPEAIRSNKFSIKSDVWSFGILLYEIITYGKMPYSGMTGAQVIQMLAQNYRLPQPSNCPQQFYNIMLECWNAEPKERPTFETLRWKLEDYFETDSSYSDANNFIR
Experiment: KINATIV assay
Type: cell-based
Conditions: 1 μM, 90 minutes, BCWM.1 cells
readout-label: % change of MS signal compared to control sample (%)
Lab book: enter the figure in %, no units written.

// solved cases for % change of MS signal compared to control sample follow
| molecule | tested-target | value-observed |
| --- | --- | --- |
| C=CC(=O)N1CCCCC(Nc2nccc(Nc3ncc(C(=O)Nc4c(C)cccc4C)s3)n2)C1 (stereo not shown) | FRK (Homo sapiens (Human)) | 93.3 |
| C=CC(=O)N1CC[C@@H](Nc2nccc(Nc3ncc(C(=O)Nc4c(C)cccc4C)s3)n2)C1 | FRK (Homo sapiens (Human)) | 87.5 |
| C=CC(=O)N1CCC(CNc2nccc(Nc3ncc(C(=O)Nc4c(C)cccc4C)s3)n2)C1 (racemic) | FRK (Homo sapiens (Human)) | 95.3 |

Moving on to another molecule below.
Data request: Lab request: please report % change of MS signal compared to control sample under test system FRK (Homo sapiens (Human)) for C=CC(=O)N1CCC(Cn2ccc(Nc3ncc(C(=O)Nc4c(C)cccc4Cl)s3)n2)C1 (stereo not shown)
Data returned: 84.0

---

Recorded % change of MS signal compared to control sample for the following compounds
Tested on: MARK1, MARK2
Assay: KINATIV assay
Format: cell-based
Conditions: 1 μM, 90 minutes, BCWM.1 cells
# include the unit after the value

| compound | tested-target | value-observed |
| --- | --- | --- |
| C=CC(=O)N1CCC(CNc2nccc(Nc3ncc(C(=O)Nc4c(C)cccc4C)s3)n2)C1 (racemic) [Example I-8] | MARK1, MARK2 | 14.6% |
| C=CC(=O)N1CC[C@@H](Nc2nccc(Nc3ncc(C(=O)Nc4c(C)cccc4C)s3)n2)C1 [Example I-4] | MARK1, MARK2 | 17.1% |
| C=CC(=O)N1CCCCC(Nc2nccc(Nc3ncc(C(=O)Nc4c(C)cccc4C)s3)n2)C1 (stereo not shown) [Example I-7] | MARK1, MARK2 | 7.9% |

Moving on to another compound below.
Data request: So what does the record say about % change of MS signal compared to control sample for C=CC(=O)N1CCC(Cn2ccc(Nc3ncc(C(=O)Nc4c(C)cccc4Cl)s3)n2)C1 (stereo not shown) [II-1] ?
Data returned: 20.9%

---

Molecular target: PIK3C2B (Homo sapiens (Human), UniProt O00750)
Sequence (O00750 whole entry): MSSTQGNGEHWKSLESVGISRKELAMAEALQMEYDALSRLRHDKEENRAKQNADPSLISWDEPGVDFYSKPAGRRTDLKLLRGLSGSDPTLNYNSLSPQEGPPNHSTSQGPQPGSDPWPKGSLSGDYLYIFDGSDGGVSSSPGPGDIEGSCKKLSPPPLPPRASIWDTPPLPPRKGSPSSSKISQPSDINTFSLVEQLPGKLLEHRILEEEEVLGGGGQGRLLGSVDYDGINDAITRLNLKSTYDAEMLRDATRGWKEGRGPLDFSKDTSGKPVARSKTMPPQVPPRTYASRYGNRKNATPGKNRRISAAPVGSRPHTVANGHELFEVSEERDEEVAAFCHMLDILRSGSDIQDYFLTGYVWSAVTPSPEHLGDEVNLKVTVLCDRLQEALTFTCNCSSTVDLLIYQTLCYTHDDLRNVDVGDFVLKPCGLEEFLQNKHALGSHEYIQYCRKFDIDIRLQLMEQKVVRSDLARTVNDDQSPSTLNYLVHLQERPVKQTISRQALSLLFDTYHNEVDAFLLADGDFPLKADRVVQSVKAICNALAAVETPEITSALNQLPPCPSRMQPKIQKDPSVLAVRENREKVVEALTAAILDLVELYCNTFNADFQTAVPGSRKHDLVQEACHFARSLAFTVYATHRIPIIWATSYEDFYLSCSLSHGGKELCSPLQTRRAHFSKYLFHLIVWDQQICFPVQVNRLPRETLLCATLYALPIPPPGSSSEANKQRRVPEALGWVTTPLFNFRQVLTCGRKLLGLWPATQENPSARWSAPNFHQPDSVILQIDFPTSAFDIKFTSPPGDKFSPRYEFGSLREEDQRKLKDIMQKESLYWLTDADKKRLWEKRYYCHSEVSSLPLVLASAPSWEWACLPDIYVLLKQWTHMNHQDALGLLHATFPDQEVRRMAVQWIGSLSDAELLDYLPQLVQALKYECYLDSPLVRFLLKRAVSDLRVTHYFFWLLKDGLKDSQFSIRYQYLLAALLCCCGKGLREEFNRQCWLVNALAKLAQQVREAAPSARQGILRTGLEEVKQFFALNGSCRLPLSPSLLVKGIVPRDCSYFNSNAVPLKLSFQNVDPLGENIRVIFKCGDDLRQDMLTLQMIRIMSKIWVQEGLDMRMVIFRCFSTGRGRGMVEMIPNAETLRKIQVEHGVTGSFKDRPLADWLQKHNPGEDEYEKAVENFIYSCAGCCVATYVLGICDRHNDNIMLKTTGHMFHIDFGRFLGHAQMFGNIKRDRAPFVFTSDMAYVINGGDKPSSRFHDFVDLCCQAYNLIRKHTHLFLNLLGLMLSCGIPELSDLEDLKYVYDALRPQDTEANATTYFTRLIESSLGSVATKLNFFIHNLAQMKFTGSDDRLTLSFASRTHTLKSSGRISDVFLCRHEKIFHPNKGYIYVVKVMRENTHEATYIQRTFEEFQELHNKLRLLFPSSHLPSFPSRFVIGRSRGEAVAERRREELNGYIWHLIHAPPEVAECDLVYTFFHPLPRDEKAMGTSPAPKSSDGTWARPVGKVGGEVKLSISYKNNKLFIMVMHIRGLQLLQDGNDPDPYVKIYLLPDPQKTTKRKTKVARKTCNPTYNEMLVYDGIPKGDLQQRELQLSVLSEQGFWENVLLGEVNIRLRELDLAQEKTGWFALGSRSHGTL
Assay: KINATIV assay
Type: cell-based
Details: 1 μM, 90 minutes, BCWM.1 cells
readout-label: % change of MS signal compared to control sample (%)
Lab book: enter the figure in %, no units written.

// solved cases for % change of MS signal compared to control sample follow
| molecule | tested-target | value-observed |
| --- | --- | --- |
| C=CC(=O)N1CCCCC(Nc2nccc(Nc3ncc(C(=O)Nc4c(C)cccc4C)s3)n2)C1 (stereo not shown) [Example I-7] | PIK3C2B (Homo sapiens (Human), UniProt O00750) | 39.9 |
| C=CC(=O)N1CCC(CNc2nccc(Nc3ncc(C(=O)Nc4c(C)cccc4C)s3)n2)C1 (racemic) [Example I-8] | PIK3C2B (Homo sapiens (Human), UniProt O00750) | 12.5 |
| C=CC(=O)N1CC[C@@H](Nc2nccc(Nc3ncc(C(=O)Nc4c(C)cccc4C)s3)n2)C1 [Example I-4] | PIK3C2B (Homo sapiens (Human), UniProt O00750) | −5.8 |

Moving on to another molecule below.
Data request: So what does the record say about % change of MS signal compared to control sample for C=CC(=O)N1CCC(Cn2ccc(Nc3ncc(C(=O)Nc4c(C)cccc4Cl)s3)n2)C1 (stereo not shown) [II-1] ?
Data returned: −5.8
